Values were extracted from paper PMC6481345.

Molecular target: LYN (Homo sapiens, UniProt P07948)
Sequence (P07948 whole entry): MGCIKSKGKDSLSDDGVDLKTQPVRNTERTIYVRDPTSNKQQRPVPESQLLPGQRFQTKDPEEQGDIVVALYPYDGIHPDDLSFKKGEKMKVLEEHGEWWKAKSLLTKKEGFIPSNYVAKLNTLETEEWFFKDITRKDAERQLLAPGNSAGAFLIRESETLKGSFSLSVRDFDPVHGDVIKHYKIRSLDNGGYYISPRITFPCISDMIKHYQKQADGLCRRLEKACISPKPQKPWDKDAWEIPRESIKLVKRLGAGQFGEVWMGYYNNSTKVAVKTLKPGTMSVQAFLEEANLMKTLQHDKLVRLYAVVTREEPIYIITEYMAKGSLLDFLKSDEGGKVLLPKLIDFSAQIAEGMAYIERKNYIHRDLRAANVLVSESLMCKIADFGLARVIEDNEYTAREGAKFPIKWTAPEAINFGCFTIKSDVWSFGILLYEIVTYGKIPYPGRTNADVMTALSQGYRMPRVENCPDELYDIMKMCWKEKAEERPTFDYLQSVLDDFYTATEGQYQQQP
Experiment: Radioisotope filter activity assay, recombinant kinase
Assay type: biochemical
Parameters: purchased Reaction Biology Corporation
Details: 10 point dose response, 10 µM ATP
Measured Quantity: IC50 (nM)

>>> df
                                smiles_code  measured_quantity  value_units  measured_value
0  Nc1ncnc2c1c(-c1ccc(Oc3ccccc3)cc1)nn2C[C@@H]1SSC[C@@H]1O               IC50           nM             137

---

Target: WEE1 (Homo sapiens, UniProt P30291)
Sequence (P30291 whole entry): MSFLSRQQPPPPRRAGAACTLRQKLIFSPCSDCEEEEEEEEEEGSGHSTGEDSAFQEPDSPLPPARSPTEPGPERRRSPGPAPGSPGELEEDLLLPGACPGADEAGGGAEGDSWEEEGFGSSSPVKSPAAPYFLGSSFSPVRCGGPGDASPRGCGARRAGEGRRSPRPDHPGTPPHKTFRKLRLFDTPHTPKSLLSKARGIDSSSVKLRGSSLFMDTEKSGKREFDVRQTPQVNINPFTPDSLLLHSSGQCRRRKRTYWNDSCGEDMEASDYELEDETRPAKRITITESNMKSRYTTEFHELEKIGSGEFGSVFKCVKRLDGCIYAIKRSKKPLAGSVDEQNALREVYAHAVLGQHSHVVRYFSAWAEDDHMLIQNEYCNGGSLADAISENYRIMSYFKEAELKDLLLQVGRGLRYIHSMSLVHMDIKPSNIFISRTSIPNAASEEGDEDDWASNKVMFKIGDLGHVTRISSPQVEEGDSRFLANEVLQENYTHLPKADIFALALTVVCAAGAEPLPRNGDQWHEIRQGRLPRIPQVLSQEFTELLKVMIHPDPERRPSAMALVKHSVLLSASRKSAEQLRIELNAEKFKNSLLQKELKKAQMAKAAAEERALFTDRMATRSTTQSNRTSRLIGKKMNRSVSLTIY
Experiment: Radioisotope filter activity assay, recombinant kinase
Conditions: 10 point dose response, 10 µM ATP
pIC50: −log10 of the molar value.
Measured Quantity: pIC50

In [3]: df
Out[3]:
                                smiles_code  measured_value
0  Nc1ncnc2c1c(-c1ccc(Oc3ccccc3)cc1)nn2C[C@@H]1SSC[C@@H]1O          < 5.00
